# targetSystem: Cathepsin K (Homo sapiens, UniProt P43235)
# Construct: purchased Biovision K150-100
# Sequence (P43235 115-329): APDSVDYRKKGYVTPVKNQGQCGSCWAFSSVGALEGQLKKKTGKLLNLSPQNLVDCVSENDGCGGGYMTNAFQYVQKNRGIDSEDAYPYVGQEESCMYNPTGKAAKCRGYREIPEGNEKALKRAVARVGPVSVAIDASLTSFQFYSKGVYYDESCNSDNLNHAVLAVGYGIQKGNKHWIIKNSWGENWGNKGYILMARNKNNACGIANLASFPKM
# assay: IC50 determination against Cathepsin K (Biovision kit K150-100)
# Type: biochemical
# measurementParameters: CTSK; Exp-1; read-out: IC50 (nM) Exp-1
reportedMetric: IC50 (nM)

a: CCOC(=O)[C@H]1O[C@@H]1C(=O)N[C@@H](CC(C)C)C(=O)NCCC(C)C [zxy-37, E64d, reference compound]
b: CCOC(=O)[C@H]1O[C@@H]1C(=O)N[C@@H](CCSC)C(=O)N1CCC(c2ccccc2)CC1
Looking at a and b , which one comes out lower in IC50 terms? In your reply, give the label of the chosen option.
b

P: CCOC(=O)[C@H]1O[C@@H]1C(=O)N[C@@H](CCSC)C(=O)NCCCc1ccccc1
Q: CCOC(=O)[C@H]1O[C@@H]1C(=O)N[C@@H](CCSC)C(=O)NC(CC)CC
R: CCOC(=O)[C@H]1O[C@@H]1C(=O)N[C@@H](CCSC)C(=O)NCCc1cccc(F)c1
S: CCCNC(=O)[C@H]1O[C@@H]1C(=O)N[C@H](C(=O)N1CCC[C@H]1C(=O)O)[C@@H](C)CC [zxy-60, CA-074, reference compound]
I would appreciate it if you could sort these 4 compounds by IC50, starting from the smallest number. Please respond by ranking the labels in the order requested.
S, R, Q, P
(S: 252 nM, R: 586 nM, Q: 1680 nM, P: 2950 nM)

1: CCCCCCNC(=O)[C@H](CCSC)NC(=O)[C@H]1O[C@@H]1C(=O)OCC
2: CCOC(=O)[C@H]1O[C@@H]1C(=O)N[C@@H](CCSC)C(=O)NCCCCc1ccccc1
Thinking about recorded IC50 values, which is higher, 1 or 2 ? Select an item and report its label.
1
